Data provenance is patent US9963445B2.

- Test system: Amaranthus retroflexus
- assay-name: Post-emergence herbicidal activity, glasshouse pot test
- Type: in vivo
- Set-up: key: 0 = no damage to plant, 5 = total damage to plant
- measurement-conditions: Application post-emergence, rate 1000 g/ha, evaluated after 13 days
AMARE herbicidal damage score overview

- compound: "COc1cc(N2C(=O)C(Cl)=C(C)C2O)ncn1 (stereo not drawn) [CF21]"
  test-system: "Amaranthus retroflexus"
  AMARE herbicidal damage score: 3
- compound: "COC1=C(C)C(O)N(c2cc(C(C)(C)F)c(Cl)nn2)C1=O (stereo not drawn) [BI14]"
  test-system: "Amaranthus retroflexus"
  AMARE herbicidal damage score: 5
- compound: "CC1=C(Cl)C(=O)N(c2cc(C)c([N+](=O)[O-])cn2)C1O (stereo not drawn) [AF48]"
  test-system: "Amaranthus retroflexus"
  AMARE herbicidal damage score: 5
- compound: "COC1=C(C)C(O)N(c2cc(C(F)(F)F)c(Br)cn2)C1=O (stereo not drawn) [AI2]"
  test-system: "Amaranthus retroflexus"
  AMARE herbicidal damage score: 5
- compound: "COC1=C(C)C(O)N(c2cc(C(C)(F)F)c(Cl)nn2)C1=O (stereo not drawn) [BI22]"
  test-system: "Amaranthus retroflexus"
  AMARE herbicidal damage score: 5
- compound: "COC1=C(C)C(O)N(c2cc(C(C)(C)C)ccn2)C1=O (stereo not drawn) [AI4]"
  test-system: "Amaranthus retroflexus"
  AMARE herbicidal damage score: 5
- compound: "CCC(C)(C)NC(=O)c1cnc(N2C(=O)C(OC)=C(C)C2O)cc1C (stereo not drawn) [AI35]"
  test-system: "Amaranthus retroflexus"
  AMARE herbicidal damage score: 5
- compound: "COC1=C(C)C(O)N(c2cc(C(C)(C)F)c(C#N)nn2)C1=O (stereo not drawn) [BI15]"
  test-system: "Amaranthus retroflexus"
  AMARE herbicidal damage score: 5
- compound: "CC1=C(Cl)C(=O)N(c2cc(C(C)(C)C#N)ncn2)C1O (stereo not drawn) [CF14]"
  test-system: "Amaranthus retroflexus"
  AMARE herbicidal damage score: 5
- compound: "CC1=C(Cl)C(=O)N(c2cc(Cl)ccn2)C1O (stereo not drawn) [AF66]"
  test-system: "Amaranthus retroflexus"
  AMARE herbicidal damage score: 5
- compound: "C#CC(C)(C)NC(=O)c1ccc(N2C(=O)C(OC)=C(C)C2O)nn1 (stereo not drawn) [BI27]"
  test-system: "Amaranthus retroflexus"
  AMARE herbicidal damage score: 5
- compound: "CC1=C(Cl)C(=O)N(c2cc3c(cn2)CCCC3)C1O (stereo not drawn) [AF89]"
  test-system: "Amaranthus retroflexus"
  AMARE herbicidal damage score: 5
- compound: "COC1=C(C)C(O)N(c2cc(C)c(C(=O)NC(C)(C)C)cn2)C1=O (stereo not drawn) [AI33]"
  test-system: "Amaranthus retroflexus"
  AMARE herbicidal damage score: 5
- compound: "COC1=C(C)C(O)N(c2cc(C(F)(F)F)c(C(=O)CC#N)cn2)C1=O (stereo not drawn) [AI38]"
  test-system: "Amaranthus retroflexus"
  AMARE herbicidal damage score: 5
- compound: "CC1=C(Br)C(=O)N(c2cc(C(F)(F)F)ncn2)C1O (stereo not drawn) [CG1]"
  test-system: "Amaranthus retroflexus"
  AMARE herbicidal damage score: 2
- compound: "COC1=C(C)C(O)N(c2cc(C)c(Cl)nn2)C1=O (stereo not drawn) [BI29]"
  test-system: "Amaranthus retroflexus"
  AMARE herbicidal damage score: 5
- compound: "CCOC(=O)c1ccc(N2C(=O)C(OC)=C(C)C2O)nn1 (stereo not drawn) [BI4]"
  test-system: "Amaranthus retroflexus"
  AMARE herbicidal damage score: 0
- compound: "COC1=C(C)C(O)N(c2cc(C(C)C)c(C(=O)NC(C)(C)C)cn2)C1=O (stereo not drawn) [AI30]"
  test-system: "Amaranthus retroflexus"
  AMARE herbicidal damage score: 5
- compound: "CC1=C(Cl)C(=O)N(c2cc(C(C)(F)F)ncn2)C1O (stereo not drawn) [CF15]"
  test-system: "Amaranthus retroflexus"
  AMARE herbicidal damage score: 5
- compound: "COC1=C(C)C(O)N(c2cc(C(F)(F)Cl)ccn2)C1=O (stereo not drawn) [AI16]"
  test-system: "Amaranthus retroflexus"
  AMARE herbicidal damage score: 5
- compound: "CCOC(=O)c1cnc(N2C(=O)C(Cl)=C(C)C2O)cc1Cl (stereo not drawn) [AF101]"
  test-system: "Amaranthus retroflexus"
  AMARE herbicidal damage score: 5
